# protocol_details: passive permeability, PAMPA, ADME assay (AID 1508612)
# condition_parameters: pH 7.4, 30.0 min, 50.0 µM
metric: Papp

// below: answered molecules
COc1cc2c(cc1-c1c(C)noc1C)ncc1[nH]c(=O)n([C@H](C)c3ccccn3)c12 | 858 ×10⁻⁶ cm/s
COC(=O)c1cccc(NC(=O)c2cnc(-c3ccc(F)cc3)nc2-c2ccncc2)c1 | > 1000 ×10⁻⁶ cm/s
O=C(Cc1ccc(Cl)c(Cl)c1)Nc1ccc(S(=O)(=O)Nc2nncs2)cc1 | 1.5 ×10⁻⁶ cm/s
O=C1CCCC2=C1C(c1[nH]ncc1Cl)N=C(Nc1nc3c(Cl)cccc3o1)N2 (stereo not given) | 162 ×10⁻⁶ cm/s

Would you mind giving Papp for every molecule in the list below?
1. COc1ccc(-c2csc(CCn3nc(C)c4c(C(F)(F)F)cc(=O)[nH]c43)n2)cc1
2. Cc1ccccc1CSc1nc2ncc(Br)cc2[nH]1
3. CCOC(=O)c1c[nH]c2c3c(ccc2c1=O)CCCC3
4. Cc1cc(N[S+](=O)([O-])c2ccc(NC(=O)Cc3ccc(F)c(F)c3)cc2)no1
5. O=C(Nc1nc(-c2ccccc2)cs1)c1ccncc1NS(=O)(=O)c1ccc(-c2ccccc2)cc1
6. O=C(c1ccc(C(=O)N2CCC(N3CCCC3)CC2)c(Nc2ccccc2)c1)N1CCC(N2CCCC2)CC1

1. 825 ×10⁻⁶ cm/s
2. 497 ×10⁻⁶ cm/s
3. 434 ×10⁻⁶ cm/s
4. 6.43 ×10⁻⁶ cm/s
5. < 1 ×10⁻⁶ cm/s
6. 7.61 ×10⁻⁶ cm/s

* * *

Answer each item with its documented Papp.
# protocol_details: passive permeability, PAMPA, ADME assay (AID 1508612)
# condition_parameters: pH 7.4, 30.0 min, 50.0 µM
Answers are plain numbers, in ×10⁻⁶ cm/s.

// below: answered molecules
CCN(C(=O)C(NS(=O)(=O)c1ccc(Br)s1)c1ccccc1)c1ccc(C)c(C)c1 (stereo not given) | 392
CCn1nc(C2CCN(C(=O)CCO)CC2)nc1-c1cnc(N)c(-c2nnc(C(C)(C)C)o2)n1 | 188
CCCN1C(CC(C)C)=NS(=O)(=O)c2cc(NC(=O)c3cccs3)ccc21 | 762
COc1ccc(CN2C(=O)[C@@H]3C[C@@H](CN3Cc3cccs3)Oc3ccccc32)cc1 | 900
COc1ccc(NC2=C(c3ccc(C(F)(F)F)cc3)C(=O)c3ccccc32)cc1 | 82

Item O=C1CCCC2=C1C(c1ccncc1Cl)N=C(Nc1nc3ccccc3o1)N2 (stereo not given) has what recorded Papp? 897

* * *

Answer each item with its documented Papp.
# protocol_details: passive permeability, PAMPA, ADME assay (AID 1508612)
# condition_parameters: pH 7.4, 30.0 min, 50.0 µM
Numbers only, in ×10⁻⁶ cm/s.

COc1ccc(-n2nc(C3CCCN(C(=O)c4ccccc4F)C3)[nH]c2=O)cc1 (stereo not given) | 476

Could you now look at the following compound, please?
Item COc1ccc(OC)c(-c2nnc3ccc(-c4ccc(OC)c(O[C@@H]5CCOC5)c4)nn23)c1 has what recorded Papp? 877

* * *

# protocol_details: passive permeability, PAMPA, ADME assay (AID 1508612)
# condition_parameters: pH 7.4, 30.0 min, 50.0 µM
# note: boundary value 80 ×10⁻⁶ cm/s maps to no (0); Papp below it maps to yes (1)

Sample answers from the record:
O=C(c1ccc2c(c1)ncn2-c1ccc(Cl)cc1)N1CCCCC1 | no (0)
NS(=O)(=O)c1ccc(NC(=O)c2cc3ncccn3n2)cc1 | no (0)
CCOc1ccc(CCNC(=O)c2ccccc2)cc1OCC | no (0)
Oc1ccc(CNc2ccccc2C(F)(F)F)c2cccnc12 | yes (1)
Cc1c(CN(C)c2cc(C3CC(O)C3)nc(N)n2)[nH]c2ccccc12 (stereo unspecified) | yes (1)

Please indicate whether the reported Papp of CC(C)(C)NS(=O)(=O)c1ccc(-c2ccc3[nH]nc(N)c3c2)cc1 is strictly below 80 ×10⁻⁶ cm/s. no (0)

Please indicate whether the reported Papp of Cc1cccc(CNc2ccc(S(=O)(=O)Nc3nccs3)cc2)c1O is strictly below 80 ×10⁻⁶ cm/s. yes (1)

Please indicate whether the reported Papp of CN(C(=O)COC(=O)c1csc(NCc2ccccc2)n1)c1ccccc1 is strictly below 80 ×10⁻⁶ cm/s. no (0)

Please indicate whether the reported Papp of Cc1ccc(S(=O)(=O)Nc2ccccc2C(=O)Nc2ccc(-c3ccccc3)nn2)cc1 is strictly below 80 ×10⁻⁶ cm/s. no (0)

Please indicate whether the reported Papp of COc1c(O)cc2c(c1OC)-c1ccc(SC)c(=O)cc1C(NC(C)=O)CC2 (stereo unspecified) is strictly below 80 ×10⁻⁶ cm/s. yes (1)

Please indicate whether the reported Papp of CC(=O)OCCN1C(=O)c2c(C)nc3ccc(S(=O)(=O)N4CCOCC4)cc3c2C1=O is strictly below 80 ×10⁻⁶ cm/s. no (0)
